Values were extracted from patent US20260226142A1.

Biological target: Cys-HLA (Staphylococcus aureus)
Items are presented alongside their recorded Kd.

>  <Binder>
Ma7F02 (VHH) VHH: QVQLVESGGGLVQAGGSLRLSCTVSGSIDSLHTMGWFRQAPGKKRDFVAVVSWSGGNTYYPDYAKGRFTISRDNTKNTVYLQMNSLKPEDTAIYYCAAESGSGNYWKIWEHEFDSWGQGTQVTVSS

>  <Kd>
0.04 nM

$$$$
>  <Binder>
Bm28C04 (VHH) VHH: QVQLVESGGGSVQPGNSLRLSCKVSGRTFNSYALGWFRRRPGDQRDFVASIIRSTGGTSYADSVKGRFTISYDNVQNTVDLQMNSLEPEDTAIYYCAGGDGHIYAFGYDYWGQGTQVTVSS

>  <Kd>
≤ 0.01 nM

$$$$
